Each recorded value in this set is attributed to patent US20090022728A1.

What koff was measured for each of the following?
# test system: T1, biotinylated Aβ1-40 peptide (biotinylated (N-biotinylated in Example 7))
# T1 construct: captured on streptavidin (SA) chip; also called Biotinylated Aβ peptide 1-40; Aβ1-40 on SA chip
# T1 sequence (peptide, as listed by the source): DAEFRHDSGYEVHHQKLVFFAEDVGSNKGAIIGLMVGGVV
# experimental details: SPR, Fab over Aβ1-40 on SA chip
Write the number in s⁻¹ without appending the unit.

Need koff, item 9TL variant M42 Fab (Fab, V domains shown, Fab; human IgG2 CH1 and kappa CL) VH: QVQLVQSGAEVKKPGASVKVSCKASGYYTEAYYIHWVRQAPGQGLEWMGRIDPATGNTKYAPRLQDRVTMTRDTSTSTVYMELSSLRSEDTAVYYCASLYSEPVYWGQGTTVTVSS VL: DVVMTQSPLSLPVTLGQPASISCKSSQSLLYSDAKTYLNWFQQRPGQSPRRLIYQISRLDPGVPDRFSGSGSGTDFTLKISRVEAEDVGVYYCLQGTHYPVLFGQGTRLEIKR 0.015

Can you handle 9TL variant M38 Fab (Fab, V domains shown, Fab; human IgG2 CH1 and kappa CL) VH: QVQLVQSGAEVKKPGASVKVSCKASGYYTEAYYIHWVRQAPGQGLEWMGRIDPATGNTKYAPRLQDRVTMTRDTSTSTVYMELSSLRSEDTAVYYCASLYSVPVYWGQGTTVTVSS VL: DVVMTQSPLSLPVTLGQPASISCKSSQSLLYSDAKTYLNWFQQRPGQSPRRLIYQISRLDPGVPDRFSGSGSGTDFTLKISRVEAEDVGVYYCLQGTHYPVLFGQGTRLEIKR next? 0.0015
